System: LXRa:RXRa (NR concentration 270 nM, RXRa partner concentration 90 nM)
Assay: PBM binding z-score (relative to random genomic background probes); higher = stronger binding; sequences stand for … in GC…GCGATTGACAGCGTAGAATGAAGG
Recorded PBM binding z-score for the following sequences

- Macromolecule Sequence: "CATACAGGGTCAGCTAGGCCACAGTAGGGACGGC"
  PBM binding z-score: 3.07
- Macromolecule Sequence: "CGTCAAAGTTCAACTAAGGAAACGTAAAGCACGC"
  PBM binding z-score: 6.47
- Macromolecule Sequence: "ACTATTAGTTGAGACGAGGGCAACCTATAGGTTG"
  PBM binding z-score: 0.287
- Macromolecule Sequence: "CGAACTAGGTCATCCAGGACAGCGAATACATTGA"
  PBM binding z-score: 2.55
- Macromolecule Sequence: "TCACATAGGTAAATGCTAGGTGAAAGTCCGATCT"
  PBM binding z-score: 0.564
- Macromolecule Sequence: "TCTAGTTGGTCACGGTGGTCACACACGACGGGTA"
  PBM binding z-score: 0.249
- Macromolecule Sequence: "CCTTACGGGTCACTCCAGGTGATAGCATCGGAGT"
  PBM binding z-score: 5.98
- Macromolecule Sequence: "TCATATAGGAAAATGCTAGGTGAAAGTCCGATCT"
  PBM binding z-score: 0.845
- Macromolecule Sequence: "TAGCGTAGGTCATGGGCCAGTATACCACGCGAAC"
  PBM binding z-score: 3.98
- Macromolecule Sequence: "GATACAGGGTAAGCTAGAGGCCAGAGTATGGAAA"
  PBM binding z-score: -0.448
- Macromolecule Sequence: "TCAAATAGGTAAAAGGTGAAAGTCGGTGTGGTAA"
  PBM binding z-score: 1.93
- Macromolecule Sequence: "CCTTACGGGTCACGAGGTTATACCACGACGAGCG"
  PBM binding z-score: 4.85
- Macromolecule Sequence: "CTTGAAAGGTCGTGCTCAGGTGAGTATACCAAAC"
  PBM binding z-score: 4.22
- Macromolecule Sequence: "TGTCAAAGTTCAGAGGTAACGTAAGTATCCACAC"
  PBM binding z-score: 4.37
- Macromolecule Sequence: "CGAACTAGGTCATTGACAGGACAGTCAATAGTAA"
  PBM binding z-score: 3.15
- Macromolecule Sequence: "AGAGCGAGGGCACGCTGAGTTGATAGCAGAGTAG"
  PBM binding z-score: 0.397
- Macromolecule Sequence: "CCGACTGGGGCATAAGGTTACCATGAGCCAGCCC"
  PBM binding z-score: 1.36
- Macromolecule Sequence: "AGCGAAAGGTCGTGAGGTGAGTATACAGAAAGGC"
  PBM binding z-score: 3.84
- Macromolecule Sequence: "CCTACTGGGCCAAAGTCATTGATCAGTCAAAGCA"
  PBM binding z-score: -0.266
- Macromolecule Sequence: "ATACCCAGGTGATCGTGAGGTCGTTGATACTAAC"
  PBM binding z-score: 1.07
- Macromolecule Sequence: "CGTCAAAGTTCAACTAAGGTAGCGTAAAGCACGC"
  PBM binding z-score: 6.17
- Macromolecule Sequence: "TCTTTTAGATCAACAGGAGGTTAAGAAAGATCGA"
  PBM binding z-score: 1.43
- Macromolecule Sequence: "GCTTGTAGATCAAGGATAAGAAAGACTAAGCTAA"
  PBM binding z-score: -1.03
- Macromolecule Sequence: "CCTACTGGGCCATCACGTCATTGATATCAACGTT"
  PBM binding z-score: -0.114
- Macromolecule Sequence: "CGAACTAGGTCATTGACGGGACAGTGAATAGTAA"
  PBM binding z-score: 2.52
- Macromolecule Sequence: "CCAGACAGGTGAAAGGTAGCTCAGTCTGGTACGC"
  PBM binding z-score: -0.0262
